Just for reference, ChEMBL document CHEMBL1133860 is where these values come from.

- test.system: Sodium-dependent serotonin transporter (Rattus norvegicus, UniProt P31652)
- Sequence (P31652 whole entry): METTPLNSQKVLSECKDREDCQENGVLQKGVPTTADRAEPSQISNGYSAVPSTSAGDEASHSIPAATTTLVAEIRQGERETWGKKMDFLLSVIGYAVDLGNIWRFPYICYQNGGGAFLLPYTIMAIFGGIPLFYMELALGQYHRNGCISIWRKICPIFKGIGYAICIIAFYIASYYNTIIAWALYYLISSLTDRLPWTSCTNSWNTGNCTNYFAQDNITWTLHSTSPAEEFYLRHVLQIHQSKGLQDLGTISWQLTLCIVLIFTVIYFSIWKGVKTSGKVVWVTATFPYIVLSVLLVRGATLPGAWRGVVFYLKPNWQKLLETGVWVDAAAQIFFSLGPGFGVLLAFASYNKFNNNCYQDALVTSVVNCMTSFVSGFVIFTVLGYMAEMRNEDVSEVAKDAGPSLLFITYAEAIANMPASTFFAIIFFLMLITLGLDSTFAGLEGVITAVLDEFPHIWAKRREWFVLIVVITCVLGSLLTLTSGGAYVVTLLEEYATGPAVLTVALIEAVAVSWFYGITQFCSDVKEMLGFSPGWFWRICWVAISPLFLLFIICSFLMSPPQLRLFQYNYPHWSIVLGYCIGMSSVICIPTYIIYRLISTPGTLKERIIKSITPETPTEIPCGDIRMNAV
pKi: −log10 of the molar value.
Label scheme for pKi: lower than 8 is criterion not met, 8 and above is criterion met.

Take a look at these entries with their results.
COC(=O)C1C(c2ccc(C)cc2)CC2CCC1N2CCCF (centres undefined) = criterion not met
CN1C2CCC1C(C(=O)OCCF)C(c1ccc(I)cc1)C2 (centres undefined) = criterion met

Ask | Tell me whether pKi is at least 8 here: COC(=O)C1C(c2ccc(C)cc2)CC2CCC1N2CCF (centres undefined)
Reply | criterion not met

Ask | Tell me whether pKi is at least 8 here: COC(=O)C1C(c2ccc(Br)cc2)CC2CCC1N2CCCF (centres undefined)
Reply | criterion not met

Ask | Tell me whether pKi is at least 8 here: COC(=O)C1C2CCC(CC1c1ccc(I)cc1)N2 (centres undefined)
Reply | criterion met

Ask | Tell me whether pKi is at least 8 here: Cc1ccc(C2CC3CCC(C2C(=O)OCCCF)N3C)cc1 (centres undefined)
Reply | criterion not met

Ask | Tell me whether pKi is at least 8 here: COC(=O)C1C(c2ccc(I)cc2)CC2CCC1N2CCCF (centres undefined)
Reply | criterion met

Ask | Tell me whether pKi is at least 8 here: CN1C2CCC1C(C(=O)OCCCF)C(c1ccc(I)cc1)C2 (centres undefined)
Reply | criterion met

---

- Test system: Monoamine transporters; serotonin & dopamine
- assay.method.text: Selectivity for DAT determined as ratio of binding affinity for SERT to that for DAT
- Type: protein assay
readout.label: Selectivity ratio
Numbers only.

COC(=O)C1C(c2ccc(C)cc2)CC2CCC1N2CCF (stereo not given) = 11.7
COC(=O)C1C2CCC(CC1c1ccc(I)cc1)N2 (stereo not given) = 0.1
Cc1ccc(C2CC3CCC(C2C(=O)OCCCF)N3C)cc1 (stereo not given) = 45.3
CN1C2CCC1C(C(=O)OCCF)C(c1ccc(I)cc1)C2 (stereo not given) = 1.1

For every listed record, write down its Selectivity ratio.
1. CN1C2CCC1C(C(=O)OCCCF)C(c1ccc(I)cc1)C2 (stereo not given)
2. O=C(OCCF)C1C(c2ccc(I)cc2)CC2CCC1N2CCCF (stereo not given)

Reply |
[1.1, 1.5]

---

Could you please report measured Ki for the items listed next?
- test.system: Norepinephrine transporter (Rattus norvegicus, UniProt Q9WTR4)
- Sequence (Q9WTR4 whole entry): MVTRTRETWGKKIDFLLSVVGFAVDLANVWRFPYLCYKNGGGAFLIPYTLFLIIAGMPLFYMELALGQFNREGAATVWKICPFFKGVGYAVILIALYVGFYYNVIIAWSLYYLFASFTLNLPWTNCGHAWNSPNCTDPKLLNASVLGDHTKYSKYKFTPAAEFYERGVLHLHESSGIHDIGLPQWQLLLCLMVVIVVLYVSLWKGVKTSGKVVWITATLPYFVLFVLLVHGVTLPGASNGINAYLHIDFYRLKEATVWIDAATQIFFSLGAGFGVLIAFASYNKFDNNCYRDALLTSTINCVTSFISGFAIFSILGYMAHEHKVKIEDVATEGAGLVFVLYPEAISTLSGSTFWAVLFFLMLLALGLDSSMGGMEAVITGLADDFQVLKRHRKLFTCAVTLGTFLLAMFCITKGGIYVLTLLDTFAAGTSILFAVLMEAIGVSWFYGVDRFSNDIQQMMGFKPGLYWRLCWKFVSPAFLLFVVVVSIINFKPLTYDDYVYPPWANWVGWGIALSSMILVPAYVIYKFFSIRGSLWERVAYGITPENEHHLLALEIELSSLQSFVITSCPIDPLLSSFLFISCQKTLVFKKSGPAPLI
Give bare numbers, in nM.

// worked examples, Ki included
COC(=O)C1C(c2ccc(Br)cc2)CC2CCC1N2CCCF (stereo not drawn) = 196
COC(=O)C1C(c2ccc(C)cc2)CC2CCC1N2CCF (stereo not drawn) = 268

For every listed record, write down its Ki.
1. COC(=O)C1C2CCC(CC1c1ccc(I)cc1)N2 (stereo not drawn)
2. CN1C2CCC1C(C(=O)OCCF)C(c1ccc(I)cc1)C2 (stereo not drawn)

Reply |
1. 1.85
2. 173

For every listed record, write down its Ki.
1. Cc1ccc(C2CC3CCC(C2C(=O)OCCCF)N3C)cc1 (stereo not drawn)
2. CN1C2CCC1C(C(=O)OCCCF)C(c1ccc(I)cc1)C2 (stereo not drawn)
3. COC(=O)C1C(c2ccc(C)cc2)CC2CCC1N2CCCF (stereo not drawn)
4. O=C(OCCF)C1C(c2ccc(I)cc2)CC2CCC1N2CCCF (stereo not drawn)

Reply |
1. 260
2. 173
3. 1210
4. 723

---

- test.system: Sodium-dependent dopamine transporter (Rattus norvegicus, UniProt P23977)
- Sequence (P23977 whole entry): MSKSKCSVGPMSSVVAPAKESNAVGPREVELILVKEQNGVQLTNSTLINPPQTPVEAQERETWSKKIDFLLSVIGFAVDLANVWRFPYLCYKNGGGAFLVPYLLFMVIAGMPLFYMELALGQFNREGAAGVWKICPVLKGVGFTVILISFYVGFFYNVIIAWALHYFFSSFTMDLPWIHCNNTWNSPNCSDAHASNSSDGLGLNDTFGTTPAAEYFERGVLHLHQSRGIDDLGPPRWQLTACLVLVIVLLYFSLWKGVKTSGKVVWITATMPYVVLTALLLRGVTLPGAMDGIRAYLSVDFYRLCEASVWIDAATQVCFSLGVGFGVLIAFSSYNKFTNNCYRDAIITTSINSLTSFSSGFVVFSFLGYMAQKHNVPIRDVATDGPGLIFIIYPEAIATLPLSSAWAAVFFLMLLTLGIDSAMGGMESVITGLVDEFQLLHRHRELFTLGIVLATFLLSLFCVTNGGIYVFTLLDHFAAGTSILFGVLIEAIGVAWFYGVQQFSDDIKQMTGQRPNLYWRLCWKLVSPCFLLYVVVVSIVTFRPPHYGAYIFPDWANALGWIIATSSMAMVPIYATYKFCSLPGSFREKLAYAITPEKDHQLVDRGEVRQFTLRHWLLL
pKi: −log10 of the molar value.
Label scheme for pKi: lower than 8 is false (0), 8 and above is true (1).

COC(=O)C1C(c2ccc(C)cc2)CC2CCC1N2CCF (stereo not given) = false (0)
CN1C2CCC1C(C(=O)OCCF)C(c1ccc(I)cc1)C2 (stereo not given) = true (1)
COC(=O)C1C(c2ccc(C)cc2)CC2CCC1N2CCCF (stereo not given) = false (0)
COC(=O)C1C(c2ccc(Br)cc2)CC2CCC1N2CCCF (stereo not given) = true (1)
COC(=O)C1C2CCC(CC1c1ccc(I)cc1)N2 (stereo not given) = true (1)
COC(=O)[C@@H]1C2CC[C@H](C[C@@H]1c1ccc(I)cc1)N2C = true (1)

Ask | Tell me whether pKi is at least 8 here: CN1C2CCC1C(C(=O)OCCCF)C(c1ccc(I)cc1)C2 (stereo not given)
Reply | true (1)

---

- System: Monoamine transporters; Norepinephrine & dopamine
- assay.method.text: Selectivity for DAT determined as ratio of binding affinity for NET to that for DAT
- Type: protein assay
readout.label: Selectivity ratio
Answers are plain numbers.

// worked examples, Selectivity ratio included
COC(=O)C1C(c2ccc(C)cc2)CC2CCC1N2CCCF (stereo not given) = 32.1
COC(=O)C1C(c2ccc(Br)cc2)CC2CCC1N2CCCF (stereo not given) = 58.9
O=C(OCCF)C1C(c2ccc(I)cc2)CC2CCC1N2CCCF (stereo not given) = 83

For every listed record, write down its Selectivity ratio.
1. COC(=O)[C@@H]1C2CC[C@H](C[C@@H]1c1ccc(I)cc1)N2C
2. CN1C2CCC1C(C(=O)OCCF)C(c1ccc(I)cc1)C2 (stereo not given)
3. Cc1ccc(C2CC3CCC(C2C(=O)OCCCF)N3C)cc1 (stereo not given)
4. COC(=O)C1C(c2ccc(C)cc2)CC2CCC1N2CCF (stereo not given)
5. COC(=O)C1C2CCC(CC1c1ccc(I)cc1)N2 (stereo not given)
6. COC(=O)C1C(c2ccc(I)cc2)CC2CCC1N2CCCF (stereo not given)
7. CN1C2CCC1C(C(=O)OCCCF)C(c1ccc(I)cc1)C2 (stereo not given)

Reply |
1: 2.1; 2: 112; 3: 36.3; 4: 8.4; 5: 2.9; 6: 7.6; 7: 112

---

- Test system: Monoamine transporters; serotonin & dopamine
- assay.method.text: Selectivity for DAT determined as ratio of binding affinity for SERT to that for DAT
- Assay type: protein assay
readout.label: Selectivity ratio
Answers are plain numbers.

COC(=O)C1C(c2ccc(I)cc2)CC2CCC1N2CCCF (centres undefined) = 0.2

For every listed record, write down its Selectivity ratio.
1. COC(=O)C1C(c2ccc(C)cc2)CC2CCC1N2CCCF (centres undefined)
2. COC(=O)C1C(c2ccc(Br)cc2)CC2CCC1N2CCCF (centres undefined)
3. COC(=O)[C@@H]1C2CC[C@H](C[C@@H]1c1ccc(I)cc1)N2C

Reply |
1: 34.9; 2: 10.9; 3: 0.4

---

Could you please report measured pKi for the items listed next?
- test.system: Sodium-dependent dopamine transporter (Rattus norvegicus, UniProt P23977)
Numbers only, as −log10 of the molar value.

For every listed record, write down its pKi.
1. O=C(OCCF)C1C(c2ccc(I)cc2)CC2CCC1N2CCCF (stereo not drawn)
2. COC(=O)C1C(c2ccc(I)cc2)CC2CCC1N2CCCF (stereo not drawn)
3. Cc1ccc(C2CC3CCC(C2C(=O)OCCCF)N3C)cc1 (stereo not drawn)

Reply |
8.06
8.08
8.14
